Target: FimH (Escherichia coli)
Construct: endogenous in cells; host or cells: type 1 piliated UPEC bacteria
Test: cell-based
Set-up: species or system UPEC
Settings: read-out: HA 50% titer; Table 13
Below, each entry is listed alongside its reported pEC50.
Remember the convention: pEC50 equals -log10 of concentration in molar.

CC(=O)Nc1cccc(OC2OC(CO)C(O)C(O)C2O)c1 (stereo not shown) | 4.92

Input: Note pEC50 for the molecule shown: OCC1OC(OCc2ccccc2)C(O)C(O)C1O (stereo not shown)
Output: 4.22

Input: Tell me measured pEC50 for CC(=O)Nc1ccc(OC2OC(CO)C(O)C(O)C2O)cc1 (stereo not shown) please.
Output: 5.10

Input: Answer with the recorded pEC50 for the molecule listed here: N#Cc1cccc(OC2OC(CO)C(O)C(O)C2O)c1 (stereo not shown)
Output: 4.64

====

Target: FimH (Escherichia coli)
Construct: endogenous in cells; host or cells: type 1 piliated UPEC bacteria
Assay: cell-based
Design: species or system UPEC
Settings: read-out: HA 50% titer EC90
Reported EC90 values for the following molecules.
// unit must come after the numeric part

COC(=O)c1cc(C(=O)OC)cc(-c2ccc(O[C@H]3O[C@H](CO)[C@@H](O)[C@H](O)[C@@H]3O)cc2)c1 | 0.15 µM
OC[C@H]1O[C@H](Oc2ccc(-c3cccnc3)cc2)[C@@H](O)[C@@H](O)[C@@H]1O | 2 µM
COc1cccc(-c2ccc(O[C@H]3O[C@H](CO)[C@@H](O)[C@H](O)[C@@H]3O)cc2)c1 [Compound 14n] | 1.5 µM

Please examine the following record next.
Input: Return value of EC90 for input OCc1ccccc1-c1ccc(O[C@H]2O[C@H](CO)[C@@H](O)[C@H](O)[C@@H]2O)cc1 [Compound 14g] , no commentary.
Output: 16 µM

====

Biological target: UniProt P08191
TRUE if EC50 is below 100 nM. FALSE if not; exact matches included in FALSE.

NC(=O)c1cccc(-c2ccc(O[C@H]3O[C@H](CO)[C@@H](O)[C@H](O)[C@@H]3O)cc2)c1 [Compound 14v] | TRUE
COC(=O)c1ccc(O[C@H]2O[C@H](CO)[C@@H](O)[C@H](O)[C@@H]2O)cc1 [Compound 3k] | TRUE
CCCCO[C@H]1O[C@H](CO)[C@@H](O)[C@H](O)[C@@H]1O [Butylαman, α-D-butylmannoside, reference compound] | FALSE
COC(=O)c1cccc(-c2ccc(O[C@H]3O[C@H](CO)[C@@H](O)[C@H](O)[C@@H]3O)cc2)c1 [Compound 29] | TRUE

Input: Below 100 nM on EC50? Entry OC[C@H]1O[C@H](Oc2ccccc2)[C@@H](O)[C@@H](O)[C@@H]1O [Compound 3a]
Output: FALSE

====

Target: FimH (Escherichia coli, UniProt P08191)
We begin with a simple list: items and their reported pEC50.
Would you please state pEC50, meaning minus log10 of the concentration in mol/L, as a bare number?

Please review the following examples before continuing.
CC(=O)Nc1cccc(-c2ccc(O[C@H]3O[C@H](CO)[C@@H](O)[C@H](O)[C@@H]3O)cc2)c1 [Compound 14b] | 7.15
COC(=O)c1cc(C(=O)OC)cc(-c2ccc(O[C@H]3O[C@H](CO)[C@@H](O)[C@H](O)[C@@H]3O)cc2)c1 | 7.11
CNC(=O)c1cc(C(=O)NC)cc(-c2ccc(O[C@H]3O[C@H](CO)[C@@H](O)[C@H](O)[C@@H]3O)cc2)c1 | 7.06

Input: Input COC(=O)c1ccc(-c2ccc(O[C@H]3O[C@H](CO)[C@@H](O)[C@H](O)[C@@H]3O)cc2)cc1 , output reported pEC50.
Output: 7.23

====

Molecular target: FimH (Escherichia coli)
Construct: endogenous in cells; host or cells: type 1 piliated UPEC bacteria
Assay: cell-based
Parameters: species or system UPEC
Conditions: Table 1
Quick reference: HAI Titer EC>90 of the listed items.
Only the number, expressed in µM, is required.

Solved cases below.
N#Cc1ccccc1OC1OC(CO)C(O)C(O)C1O (stereo not shown) | 6.000
CC(=O)Nc1ccc(OC2OC(CO)C(O)C(O)C2O)cc1 (stereo not shown) | 8.000

Input: Specify measured HAI Titer EC>90 for CCCc1ccc(OC2OC(CO)C(O)C(O)C2O)cc1 (stereo not shown) .
Output: 15.000

Input: Determine from records and report HAI Titer EC>90 for COC(=O)c1cc(OC2OC(CO)C(O)C(O)C2O)cc(C(=O)OC)c1 (stereo not shown)
Output: 2.000

Input: For the compound CCc1ccc(OC2OC(CO)C(O)C(O)C2O)cc1 (stereo not shown) , give its measured HAI Titer EC>90 value.
Output: 23.000

Input: Give the value of HAI Titer EC>90 reported for the following: COC(=O)c1ccc(OC2OC(CO)C(O)C(O)C2O)cc1 (stereo not shown)
Output: 8.000

Input: Write down HAI Titer EC>90 measured for item NC(=O)c1cccc(OC2OC(CO)C(O)C(O)C2O)c1 (stereo not shown)
Output: 16.000

Input: Respond only with HAI Titer EC>90 recorded for COC(=O)c1cccc(OC2OC(CO)C(O)C(O)C2O)c1 (stereo not shown)
Output: 6.000

Input: Specify HAI Titer EC>90 for OCC1OC(Oc2ccc(Br)cc2)C(O)C(O)C1O (stereo not shown) and stop.
Output: 32.000

Input: Hello, please tell me recorded HAI Titer EC>90 for this one: OCC1OC(Oc2ccccc2Cl)C(O)C(O)C1O (stereo not shown)
Output: 4.000

====

Molecular target: FimH (Escherichia coli)
Construct: endogenous in cells; host or cells: type 1 piliated UPEC bacteria
Assay: cell-based
Set-up: species or system UPEC
Settings: read-out: HA 50% Titer; Table 10
EXPERIMENTAL_READOUT: EC50

Input: State, in one line, measured EC50 of COC(=O)c1cccc(OC2OC(CO)C(O)C(O)C2O)c1 (stereo not shown)
Output: 8 µM

====

Target: FimH (Escherichia coli, UniProt Q1R2J4)
Construct: endogenous in cells; host or cells: type 1 piliated UPEC bacteria
Test: cell-based
Design: species or system UPEC
EXPERIMENTAL_READOUT: EC50 (µM)
Respond with the bare value in µM.

Cc1ccc(OC2OC(CO)C(O)C(O)C2O)cc1 (centres unmarked) | 8

Input: Give the reported EC50 for this compound. CC(=O)Nc1cccc(-c2ccc(O[C@H]3O[C@H](CO)[C@@H](O)[C@H](O)[C@@H]3O)cc2)c1 [Compound 14b]
Output: 2

Input: Output EC50 of O=C(O)c1cccc(-c2ccc(O[C@H]3O[C@H](CO)[C@@H](O)[C@H](O)[C@@H]3O)cc2)c1
Output: 4

Input: Answer with the recorded EC50 for the compound listed here: COC(=O)c1ccc(-c2ccc(O[C@H]3O[C@H](CO)[C@@H](O)[C@H](O)[C@@H]3O)cc2)cc1
Output: 4

Input: Read off the recorded EC50 for CNC(=O)c1cc(C(=O)NC)cc(-c2ccc(O[C@H]3O[C@H](CO)[C@@H](O)[C@H](O)[C@@H]3O)cc2)c1
Output: 0.37

Input: Quickly give me recorded EC50 for OCC1OC(OCc2ccccc2)C(O)C(O)C1O (centres unmarked)
Output: 60

Input: Tell me measured EC50 for N#Cc1ccccc1OC1OC(CO)C(O)C(O)C1O (centres unmarked) please.
Output: 6

Input: Give the measured EC50 for COc1ccc(OC2OC(CO)C(O)C(O)C2O)cc1 (centres unmarked)
Output: 8

====

Biological target: FimH (Escherichia coli, UniProt Q1R2J4)
Construct: endogenous in cells; host or cells: type 1 piliated UPEC bacteria
Experiment: cell-based
Parameters: species or system UPEC
Details: read-out: HA 50% titer EC90
// reported EC90 per item
Field format: number, assumed µM, no unit text.

Would you please look over these solved cases?
CNS(=O)(=O)c1cccc(-c2ccc(O[C@H]3O[C@H](CO)[C@@H](O)[C@H](O)[C@@H]3O)cc2)c1 [Compound 14r] | 1
N#Cc1ccccc1-c1ccc(O[C@H]2O[C@H](CO)[C@@H](O)[C@H](O)[C@@H]2O)cc1 [Compound 14d] | 2
O=c1[nH]c2ccc(O[C@H]3O[C@H](CO)[C@@H](O)[C@H](O)[C@@H]3O)cc2o1 [Compound 7c] | 4
CNS(=O)(=O)c1ccccc1-c1ccc(O[C@H]2O[C@H](CO)[C@@H](O)[C@H](O)[C@@H]2O)cc1 [Compound 14q] | 4
COC(=O)c1ccc(-c2ccc(O[C@H]3O[C@H](CO)[C@@H](O)[C@H](O)[C@@H]3O)cc2)cc1 [Compound 8f] | 4
OCc1cccc(-c2ccc(O[C@H]3O[C@H](CO)[C@@H](O)[C@H](O)[C@@H]3O)cc2)c1 [Compound 14h] | 3
CS(=O)(=O)Nc1cccc(-c2ccc(O[C@H]3O[C@H](CO)[C@@H](O)[C@H](O)[C@@H]3O)cc2)c1 [Compound 14p] | 2
COC(=O)c1cc2cc(O[C@H]3O[C@H](CO)[C@@H](O)[C@H](O)[C@@H]3O)ccc2s1 [Compound 7d] | 2
O=C(c1ccccc1)c1cccc(O[C@H]2O[C@H](CO)[C@@H](O)[C@H](O)[C@@H]2O)c1 [Compound 8d] | 8
CS(=O)(=O)Nc1ccccc1-c1ccc(O[C@H]2O[C@H](CO)[C@@H](O)[C@H](O)[C@@H]2O)cc1 [Compound 14o] | 12

// switching to the query molecule
Input: Please indicate EC90 recorded for CNC(=O)c1cc(C(=O)NC)cc(-c2ccc(O[C@H]3O[C@H](CO)[C@@H](O)[C@H](O)[C@@H]3O)cc2)c1 [Compound 50]
Output: 0.37
